Target: Carbonic anhydrase (Candida albicans (strain SC5314 / ATCC MYA-2876) (Yeast), UniProt Q5AJ71)
Sequence (Q5AJ71 whole entry): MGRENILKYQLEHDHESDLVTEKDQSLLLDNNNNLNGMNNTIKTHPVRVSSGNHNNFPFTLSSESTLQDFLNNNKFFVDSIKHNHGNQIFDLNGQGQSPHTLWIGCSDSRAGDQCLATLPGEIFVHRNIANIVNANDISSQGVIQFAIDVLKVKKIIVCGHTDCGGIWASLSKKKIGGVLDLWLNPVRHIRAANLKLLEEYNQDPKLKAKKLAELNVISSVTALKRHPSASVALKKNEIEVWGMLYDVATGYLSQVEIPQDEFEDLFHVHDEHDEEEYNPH
Parameter: Ki (nM)

> print(dat)
                                    molecule  endpoint.value
 1          Nc1nccc(Nc2ccc(S(N)(=O)=O)cc2)n1            1110
 2         NCc1ccc(S(N)(=O)=O)cc1 [MAFENIDE]            1110
 3       Nc1cc(Cl)c(S(N)(=O)=O)cc1S(N)(=O)=O             874
 4  Nc1ccc(S(=O)(=O)NCc2ccc(S(N)(=O)=O)cc2)cc1            1310
 5            NS(=O)(=O)c1nnc(-c2ccccc2Cl)s1            1290
 6                   Nc1ccc(S(N)(=O)=O)cc1Cl            1340
 7                    Nc1ccc(S(N)(=O)=O)cc1F            1240
 8  Nc1ccc(S(=O)(=O)Nc2nnc(S(N)(=O)=O)s2)cc1            1090
 9                   Nc1ccc(S(N)(=O)=O)cc1Br             408
10                   O=C1NS(=O)(=O)c2ccccc21             736
11  Nc1ccc(S(=O)(=O)NCCc2ccc(S(N)(=O)=O)cc2)cc1             727
12    NS(=O)(=O)c1ccc(C(=O)O)cc1 [CARZENIDE]             861
13                   NS(=O)(=O)c1ccc(CCO)cc1            1210
